- Test system: HeLa
- run description: Cytotoxicity against Homo sapiens (human) HeLa cells by MTT assay
- Type: functional, cell-based
assay endpoint: IC50

{"entry smiles": "CC[C@@]1(O)C(=O)OCc2c1cc1n(c2=O)Cc2cc3ccccc3nc2-1", "IC50": "0.28 µg/mL"}
{"entry smiles": "Cc1ccc2c3c([nH]c2c1)-c1nc2ccc(Cl)cc2c(-c2ccccc2)c1CC3", "IC50": "> 100 µg/mL"}
{"entry smiles": "Cc1ccc2[nH]c3c(c2c1)CCc1c-3nc2ccc(Cl)cc2c1-c1ccccc1", "IC50": "> 100 µg/mL"}

# context switch: different compound, same IC50
Problem: Quickly give me recorded IC50 for Cc1cccc2c3c([nH]c12)-c1nc2ccc(Cl)cc2c(-c2ccccc2)c1CC3
Solution: > 100 µg/mL
